- tested_on: Genome polyprotein (West Nile virus)
- test_description: Inhibition of West Nile virus […] NS2B-NS3 protease at 50 uM by homogeneous fluorimetric assay
Square brackets hold non-standard residues; d marks the D form. Peptide text beside a SMILES is read from it. * marks the point of attachment. Cha = N[C@@H](CC1CCCCC1)C(=O)O; Phg = N[C@H](C(=O)O)c1ccccc1; 4Abz = Nc1ccc(C(=O)O)cc1; Bz = O=C(c1ccccc1)*
property_name: inhibition (%)

Before answering, review these 2 worked examples.
* N=C(N)NCCC[C@H](NC(=O)c1ccccc1)C(=O)N[C@@H](CCCCN)C(=O)N[C@@H](CC1CCCCC1)C(N)=O (Bz-Arg-Lys-[Cha]-NH2) | 19.1
* CC(C)[C@H](NC(=O)[C@H](CCCCN)NC(=O)[C@H](CCCNC(=N)N)NC(=O)c1ccccc1)C(N)=O (Bz-Arg-Lys-Val-NH2) | 18.3

P. N=C(N)NCCC[C@H](NC(=O)c1ccccc1)C(=O)N[C@@H](CCCCN)C(=O)Nc1ccc(C(N)=O)cc1 (Bz-Arg-Lys-[4Abz]-NH2)
Q. N#C/C(=C\c1ccc(C(=O)N[C@@H](CCCNC(=N)N)C(=O)N[C@@H](CCCCN)C(=O)NC(C(N)=O)c2ccccc2)cc1)C(=O)NC1CC1 (stereo partly specified)
R. CC(C)(C)[C@H](NC(=O)[C@H](CCCCN)NC(=O)[C@H](CCCNC(=N)N)NC(=O)c1ccc(/C=C(\C#N)C(=O)NC2CC2)cc1)C(N)=O
S. N=C(N)NCCC[C@H](NC(=O)c1ccccc1)C(=O)N[C@@H](CCCCN)C(=O)N[C@H](C(N)=O)c1ccccc1 (Bz-Arg-Lys-[Phg]-NH2)
Request: Arrange items by their inhibition values in increasing order. Labels, requested order.
Response: P, R, S, Q

====

- tested_on: Genome polyprotein (dengue virus type 2)
- test_description: Inhibition of Dengue virus serotype 2 NS2B-NS3 protease at 50 uM by homogeneous fluorimetric assay
Square brackets hold non-standard residues; d marks the D form. Peptide text beside a SMILES is read from it. * marks the point of attachment. ξ: configuration not given here. 2Pal = N[C@@H](Cc1ccccn1)C(=O)O; ξChg = NC(C(=O)O)C1CCCCC1; Bz = O=C(c1ccccc1)*
property_name: inhibition (%)

- CCCC[C@H](NC(=O)[C@H](CCCCN)NC(=O)[C@H](CCCNC(=N)N)NC(=O)c1ccccc1)C(N)=O: 68.1
- N#C/C(=C\c1ccc(C(=O)N[C@@H](CCCNC(=N)N)C(=O)N[C@@H](CCCCN)C(=O)NC(C(N)=O)c2ccccc2)cc1)C(=O)NC1CC1 (some centres undefined): 98.6
- N=C(N)NCCC[C@H](NC(=O)c1ccccc1)C(=O)N[C@@H](CCCCN)C(=O)N[C@@H](Cc1ccccn1)C(N)=O (Bz-Arg-Lys-[2Pal]-NH2): 53
- N=C(N)NCCC[C@H](NC(=O)c1ccccc1)C(=O)N[C@@H](CCCCN)C(=O)NC(C(N)=O)C1CCCCC1 (stereo partly drawn) (Bz-Arg-Lys-[ξChg]-NH2): 71.7

====

- tested_on: Genome polyprotein (West Nile virus)
- test_description: Inhibition of West Nile virus […] NS2B-NS3 protease at 50 uM by homogeneous fluorimetric assay
Square brackets hold non-standard residues; d marks the D form. Peptide text beside a SMILES is read from it. * marks the point of attachment. Phe(4-CN) = N#Cc1ccc(C[C@H](N)C(=O)O)cc1; 2Abz = Nc1ccccc1C(=O)O; Bz = O=C(c1ccccc1)*
property_name: inhibition (%)

Answered cases to consult:
* CC(C)(C)[C@H](NC(=O)[C@H](CCCCN)NC(=O)[C@H](CCCNC(=N)N)NC(=O)c1ccc(/C=C2\SC(=O)N(C3CCCC3)C2=O)cc1)C(N)=O | 28
* N=C(N)NCCC[C@H](NC(=O)c1ccccc1)C(=O)N[C@@H](CCCCN)C(=O)N[C@@H](Cc1ccc(O)cc1)C(N)=O (Bz-Arg-Lys-Tyr-NH2) | 12.9
* CCCC[C@H](NC(=O)[C@H](CCCCN)NC(=O)[C@H](CCCNC(=N)N)NC(=O)c1ccccc1)C(N)=O | 7.7
* N#C/C(=C\c1ccc(C(=O)N[C@@H](CCCNC(=N)N)C(=O)N[C@@H](CCCCN)C(=O)N2Cc3ccccc3CC2C(N)=O)cc1)C(=O)NC1CC1 (stereo partly drawn) | 38.3
* N=C(N)NCCC[C@H](NC(=O)c1ccccc1)C(=O)N[C@@H](CCCCN)C(=O)Nc1ccccc1C(N)=O (Bz-Arg-Lys-[2Abz]-NH2) | 8.7

A. N=C(N)NCCC[C@H](NC(=O)c1ccc(/C=C2\SC(=O)N(C3CCCC3)C2=O)cc1)C(=O)N[C@@H](CCCCN)C(=O)N1Cc2ccccc2CC1C(N)=O (stereo partly drawn)
B. N#Cc1ccc(C[C@H](NC(=O)[C@H](CCCCN)NC(=O)[C@H](CCCNC(=N)N)NC(=O)c2ccccc2)C(N)=O)cc1 (Bz-Arg-Lys-[Phe(4-CN)]-NH2)
Request: Select one. Lower inhibition: A or B Lab note: record the label of whichever item you select.
Response: B
(B: 15.9%, A: 49.4%)

====

- tested_on: Genome polyprotein (dengue virus type 2, UniProt P12823)
pIC50: −log10 of the molar value. Square brackets hold non-standard residues; d marks the D form. Peptide text beside a SMILES is read from it. * marks the point of attachment. Phe(4-NO2) = N[C@@H](Cc1ccc([N+](=O)[O-])cc1)C(=O)O; 2Pal = N[C@@H](Cc1ccccn1)C(=O)O; 2Abz = Nc1ccccc1C(=O)O; Bz = O=C(c1ccccc1)*
property_name: pIC50

Example cases with answers are listed next.
• N=C(N)NCCC[C@H](NC(=O)c1ccccc1)C(=O)N[C@@H](CCCCN)C(=O)N[C@@H](Cc1c[nH]c2ccccc12)C(N)=O (Bz-Arg-Lys-Trp-NH2) = 4.75
• CC(C)[C@H](NC(=O)[C@H](CCCCN)NC(=O)[C@H](CCCNC(=N)N)NC(=O)c1ccccc1)C(N)=O (Bz-Arg-Lys-Val-NH2) = 4.54
• N=C(N)NCCC[C@H](NC(=O)c1ccccc1)C(=O)N[C@@H](CCCCN)C(=O)Nc1ccccc1C(N)=O (Bz-Arg-Lys-[2Abz]-NH2) = 4.80

a. N=C(N)NCCC[C@H](NC(=O)c1ccccc1)C(=O)N[C@@H](CCCCN)C(=O)N[C@@H](Cc1ccc([N+](=O)[O-])cc1)C(N)=O (Bz-Arg-Lys-[Phe(4-NO2)]-NH2)
b. N=C(N)NCCC[C@H](NC(=O)c1ccccc1)C(=O)N[C@@H](CCCCN)C(=O)N[C@@H](Cc1ccc(O)cc1)C(N)=O (Bz-Arg-Lys-Tyr-NH2)
c. N=C(N)NCCC[C@H](NC(=O)c1ccccc1)C(=O)N[C@@H](CCCCN)C(=O)N[C@@H](Cc1ccccn1)C(N)=O (Bz-Arg-Lys-[2Pal]-NH2)
Request: Returns the items ordered by pIC50, from maximum to minimum. // ordering of labels required in reply
Response: b, a, c
(b: 5.13, a: 4.76, c: 4.35)

====

- tested_on: Genome polyprotein (West Nile virus)
- test_description: Inhibition of West Nile virus […] NS2B-NS3 protease at 50 uM by homogeneous fluorimetric assay
Square brackets hold non-standard residues; d marks the D form. Peptide text beside a SMILES is read from it. * marks the point of attachment. Phe(4-NO2) = N[C@@H](Cc1ccc([N+](=O)[O-])cc1)C(=O)O; 2Pal = N[C@@H](Cc1ccccn1)C(=O)O; 3Abz = Nc1cccc(C(=O)O)c1; Bz = O=C(c1ccccc1)*
property_name: inhibition (%)

- N=C(N)NCCC[C@H](NC(=O)c1ccccc1)C(=O)N[C@@H](CCCCN)C(=O)N[C@@H](Cc1ccc([N+](=O)[O-])cc1)C(N)=O (Bz-Arg-Lys-[Phe(4-NO2)]-NH2): 21.3

1. N=C(N)NCCC[C@H](NC(=O)c1ccccc1)C(=O)N[C@@H](CCCCN)C(=O)Nc1cccc(C(N)=O)c1 (Bz-Arg-Lys-[3Abz]-NH2)
2. N=C(N)NCCC[C@H](NC(=O)c1ccccc1)C(=O)N[C@@H](CCCCN)C(=O)N[C@@H](Cc1ccccn1)C(N)=O (Bz-Arg-Lys-[2Pal]-NH2)
3. N=C(N)NCCC[C@H](NC(=O)c1ccccc1)C(=O)N[C@@H](CCCCN)C(=O)NCC(N)=O (Bz-Arg-Lys-Gly-NH2)
Request: Task for the reader: rank each entry by its inhibition, from the minimum upward. Returns: the labels listed in the requested order.
Response: 2, 1, 3
(2: 9.8%, 1: 23%, 3: 44.6%)

a. C[C@@H](O)[C@H](NC(=O)[C@H](CCCCN)NC(=O)[C@H](CCCNC(=N)N)NC(=O)c1ccccc1)C(N)=O (Bz-Arg-Lys-Thr-NH2)
b. CCCC[C@H](NC(=O)[C@H](CCCCN)NC(=O)[C@H](CCCNC(=N)N)NC(=O)c1ccc(/C=C(\C#N)C(=O)NC2CC2)cc1)C(N)=O
Request: Form: Entry with minimum inhibition (choose one): a / b State the label of the item chosen.
Response: a
